# target desc: T1, FZD4 cysteine-rich domain (CRD), MYC-tagged and GPI-anchored on CHO cells (human, UniProt Q9ULV1 42-167, GPI anchor)
# T1 construct: also called FZD4 CRD; CHO-myc-FZDGPI; not shown: MYC tag and GPI anchor signal
# T1 sequence: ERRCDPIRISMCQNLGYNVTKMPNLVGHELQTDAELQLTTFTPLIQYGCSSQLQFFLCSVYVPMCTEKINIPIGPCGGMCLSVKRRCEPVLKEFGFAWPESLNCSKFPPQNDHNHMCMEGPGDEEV
# assay protocol: flow cytometry, CHO-CRD cells;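 further: flow cytometry of Fab binding to CHO cells overexpressing a Frizzled CRD, with binding defined as median fluorescence over twice that of CHO cells lacking any Frizzled CRD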
measurement kind: median fluorescence
Answer field: number only, no words.

Known median fluorescence results, listed for orientation:
Fab-2928 (Fab, V domains shown, Fab; also called Fv-2928) VH: EVQLVESGGGLVQPGGSLRLSCAASGFNISYSSIHWVRQAPGKGLEWVASIYPSYSSTYYADSVKGRFTISADTSKNTAYLQMNSLRAEDTAVYYCARYYAMDYWGQGTLVTVSS VL: DIQMTQSPSSLSASVGDRVTITCRASQSVSSAVAWYQQKPGKAPKLLIYSASSLYSGVPSRFSGSRSGTDFTLTISSLQPEDFATYYCQQAFYYPITFGQGTKVEIK = 5.19
Fab-2898 (Fab, V domains shown, Fab; also called Fv-2898) VH: EVQLVESGGGLVQPGGSLRLSCAASGFNIYSYSMHWVRQAPGKGLEWVASIYSSSGSTSYADSVKGRFTISADTSKNTAYLQMNSLRAEDTAVYYCARAVWGLDYWGQGTLVTVSS VL: DIQMTQSPSSLSASVGDRVTITCRASQSVSSAVAWYQQKPGKAPKLLIYSASSLYSGVPSRFSGSRSGTDFTLTISSLQPEDFATYYCQQWWGYYSLITFGQGTKVEIK = 6.26

[ask] Please indicate median fluorescence recorded for Fab-2927 (Fab, V domains shown, Fab; also called Fv-2927) VH: EVQLVESGGGLVQPGGSLRLSCAASGFNIYYSSMHWVRQAPGKGLEWVASIYPSYGYTSYADSVKGRFTISADTSKNTAYLQMNSLRAEDTAVYYCARYGYYGFDYWGQGTLVTVSS VL: DIQMTQSPSSLSASVGDRVTITCRASQSVSSAVAWYQQKPGKAPKLLIYSASSLYSGVPSRFSGSRSGTDFTLTISSLQPEDFATYYCQQWGSHGYLITFGQGTKVEIK
[reply] 5.94
